assay-comment: Cytotoxicity against human U937 cells assessed as cell viability after 72 hrs by MTT assay
Type: cell-based, U-937
condition-details: read-out: LC50
measured-attribute: CC50 at 72 h

COc1cc(C2CC(c3ccccc3)=NN2)ccc1Oc1nc2c(c(=O)n(C)c(=O)n2C)n1C (stereo unspecified) = 19.8 µg/mL
COc1ccc(C2=NN(C=O)C(c3ccc(Oc4nc5c(c(=O)n(C)c(=O)n5C)n4C)c(OC)c3)C2)cc1 (stereo unspecified) = 38.7 µg/mL
COc1cc(C2CC(c3ccccc3)=NN2C=O)ccc1Oc1nc2c(c(=O)n(C)c(=O)n2C)n1C (stereo unspecified) = > 200 µg/mL
C[C@@H]1[C@H](O)[C@@H](C)/C=C/C=C/C=C/C=C/C=C/C=C/C=C/[C@H](O[C@@H]2O[C@H](C)[C@@H](O)[C@H](N)[C@@H]2O)C[C@@H]2O[C@](O)(C[C@@H](O)C[C@@H](O)[C@H](O)CC[C@@H](O)C[C@@H](O)CC(=O)O[C@H]1C)C[C@H](O)[C@H]2C(=O)O = 36 µg/mL
COc1cc(C2CC(c3cc(OC)c(OC)c(OC)c3)=NN2)ccc1Oc1nc2c(c(=O)n(C)c(=O)n2C)n1C (stereo unspecified) = > 200 µg/mL

Given COc1ccc(C2=NNC(c3ccc(Oc4nc5c(c(=O)n(C)c(=O)n5C)n4C)c(OC)c3)C2)cc1 (stereo unspecified) , state its recorded CC50 at 72 h.
> 200 µg/mL

Endpoint output: CC50 at 72 h of COc1ccc(C(=O)/C=C/c2ccc(Oc3nc4c(c(=O)n(C)c(=O)n4C)n3C)c(OC)c2)cc1 . Value?
> 200 µg/mL

Entry COc1cc(C2CC(c3ccc(Br)cc3)=NN2C=O)ccc1Oc1nc2c(c(=O)n(C)c(=O)n2C)n1C (stereo unspecified) : reported CC50 at 72 h = ?
> 200 µg/mL

// returns reported CC50 at 72 h for input COc1cc(C2CC(c3ccccc3)=Nc3c(C)nn(-c4ccccc4)c3N2)ccc1Oc1nc2c(c(=O)n(C)c(=O)n2C)n1C (stereo unspecified)
> 200 µg/mL

Need CC50 at 72 h of COc1cc(C2CC(c3ccccc3)=NN2C(C)=O)ccc1Oc1nc2c(c(=O)n(C)c(=O)n2C)n1C (stereo unspecified) , thanks.
14.8 µg/mL

Fill blank: measured CC50 at 72 h of the compound COc1cc(C2CC(c3ccc(Br)cc3)=NN2C(C)=O)ccc1Oc1nc2c(c(=O)n(C)c(=O)n2C)n1C (stereo unspecified) is ____.
110 µg/mL

Entry under review: COc1cc(C2CC(c3ccc(Cl)cc3)=Nc3c(C)nn(-c4ccccc4)c3N2)ccc1Oc1nc2c(c(=O)n(C)c(=O)n2C)n1C (stereo unspecified) . Reported CC50 at 72 h?
> 200 µg/mL

Which CC50 at 72 h is listed for COc1cc(C2CC(c3ccc(Cl)cc3)=NN2C=O)ccc1Oc1nc2c(c(=O)n(C)c(=O)n2C)n1C (stereo unspecified) ?
> 200 µg/mL

Query (compound): COc1cc(C2CC(c3ccc(C)cc3)=Nc3c(C)nn(-c4ccccc4)c3N2)ccc1Oc1nc2c(c(=O)n(C)c(=O)n2C)n1C (stereo unspecified) ; field requested: CC50 at 72 h
> 200 µg/mL

Dear colleague, I am looking for the recorded CC50 at 72 h of the following compound: COc1cc(C2CC(c3cc(OC)c(OC)c(OC)c3)=NN2C(C)=O)ccc1Oc1nc2c(c(=O)n(C)c(=O)n2C)n1C (stereo unspecified)
> 200 µg/mL

Fill in: CC50 at 72 h of COc1cc(C2CC(c3ccc(Br)cc3)=NN2)ccc1Oc1nc2c(c(=O)n(C)c(=O)n2C)n1C (stereo unspecified) is ___
> 200 µg/mL
